Tested on: NCI-H460
Assay: DTP human tumor cell line one-dose prescreen, NCI-H460
Assay type: cell-based
Conditions: 48 hours, Alamar Blue, test/control, read-out: Percentage growth Lung NCI-H460
Examples of compounds with documented activity at 50 µM follow.
METRIC: activity at 50 µM (%)

                                   compound  measurement
0  CS(=O)(=O)c1ccc(-n2c(-c3ccc(F)cc3)nc(N3CCOCC3)c(C(N)=O)c2=O)cc1 [Example 50]           94
1  CNc1nc(-c2ccc(F)cc2)n(-c2ccc(SC)cc2)c(=O)c1C#N [Example 56]           54
2  CSc1ccc(-c2nc(SC)c(C#N)c(=O)n2-c2ccc(C(C)(C)C)cc2)cc1 [Example 22]           80
3  CNc1nc(-c2ccc(F)cc2)n(-c2ccc(S(C)(=O)=O)cc2)c(=O)c1C(N)=O [Example 49]           72

###

Test system: IL-6
Assay: IL-6 production in LPS-stimulated human whole blood
Assay type: cell-based
Settings: 0.25 μM, LPS 4 h
# key: entry, value: inhibition at 0.25 µM
METRIC: inhibition at 0.25 µM

>>> df
                                   molecule  measurement
0  CSc1ccc(-c2nc(SC)c(C#N)c(=O)n2-c2ccc(F)cc2)cc1          51%
1  CSc1ccc(-n2c(-c3ccccc3)nc(SC)c(C#N)c2=O)cc1        11.3%
2  CSc1ccc(-n2c(-c3ccc(C(F)(F)F)cc3)nc(SC)c(C#N)c2=O)cc1        48.4%
3  CSc1ccc(-c2nc(SC)c(C#N)c(=O)n2-c2ccc(C)cc2)cc1        41.4%
4  CSc1ccc(-c2nc(SC)c(C#N)c(=O)n2-c2ccc(C(C)C)cc2)cc1        31.1%
5  CSc1nc(-c2ccccc2)n(-c2ccc(F)cc2)c(=O)c1C#N        16.2%
6  CSc1nc(-c2ccc(S(C)(=O)=O)cc2)n(-c2ccc(C(C)C)cc2)c(=O)c1C#N        70.8%
7  CSc1nc(-c2ccc(S(C)(=O)=O)cc2)n(-c2ccc(C)c(C)c2)c(=O)c1C#N        28.7%
8  CSc1ccc(-n2c(-c3ccc(F)cc3)nc(SC)c(C#N)c2=O)cc1          45%
9  CCOC(=O)c1c(SC)nc(-c2ccc(F)cc2)n(-c2ccc(SC)cc2)c1=O        10.4%

###

METRIC: melting point

>>> print(df.to_string())
                                    molecule         metric    measurement
 0  CSc1ccc(-n2c(-c3ccncc3)nc(SC)c(C#N)c2=O)cc1  melting point  227 to 229 °C
 1  CSc1ccc(-c2nc(SC)c(C#N)c(=O)n2-c2ccc(Br)cc2)cc1  melting point  213 to 215 °C
 2  CS(=O)(=O)c1ccc(-n2c(-c3ccc(F)cc3)nc(S(C)(=O)=O)c(C(N)=O)c2=O)cc1  melting point  237 to 241 °C
 3  CS(=O)(=O)c1ccc(-n2c(-c3ccc(F)cc3)nc(N3CCOCC3)c(C(N)=O)c2=O)cc1  melting point  255 to 258 °C
 4  CNc1nc(-c2ccc(S(C)(=O)=O)cc2)n(-c2ccc(C)cc2)c(=O)c1C(N)=O  melting point       > 300 °C
 5  CSc1nc(-c2ccncc2)n(-c2ccc(F)cc2)c(=O)c1C#N  melting point  301 to 303 °C
 6  CSc1nc(-c2ccccn2)n(-c2ccc(F)cc2)c(=O)c1C#N  melting point  221 to 227 °C
 7  CCOc1ccc(-n2c(-c3ccncc3)nc(SC)c(C#N)c2=O)cc1  melting point  201 to 204 °C
 8  CSc1nc(-c2ccccc2)n(-c2ccc(C)cc2)c(=O)c1C#N  melting point  258 to 260 °C
 9  CSc1nc(-c2ccccn2)n(-c2ccc(C)cc2)c(=O)c1C#N  melting point  247 to 248 °C
10  CSc1nc(-c2ccc(S(C)(=O)=O)cc2)n(-c2ccc(C(C)C)cc2)c(=O)c1C#N  melting point  211 to 212 °C
